system: α3β4 nAChR (Homo sapiens, UniProt P30926+P32297)
Construct: expressed in transfected cells; host or cells: Xenopus laevis oocytes
Sequence (P32297 32-505): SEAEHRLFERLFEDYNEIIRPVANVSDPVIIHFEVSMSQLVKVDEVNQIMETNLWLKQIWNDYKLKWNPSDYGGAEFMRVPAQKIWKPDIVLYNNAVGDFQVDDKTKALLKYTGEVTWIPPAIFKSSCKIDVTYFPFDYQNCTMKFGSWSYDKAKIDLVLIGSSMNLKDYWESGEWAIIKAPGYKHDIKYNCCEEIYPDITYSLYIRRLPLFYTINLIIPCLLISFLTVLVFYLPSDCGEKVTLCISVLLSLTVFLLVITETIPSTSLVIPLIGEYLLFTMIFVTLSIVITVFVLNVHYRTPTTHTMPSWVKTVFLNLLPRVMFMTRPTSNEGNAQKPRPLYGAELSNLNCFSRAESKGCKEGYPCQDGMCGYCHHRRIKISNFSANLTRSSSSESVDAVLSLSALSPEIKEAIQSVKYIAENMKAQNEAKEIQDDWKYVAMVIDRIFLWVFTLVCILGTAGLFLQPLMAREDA
Sequence (P30926 22-498): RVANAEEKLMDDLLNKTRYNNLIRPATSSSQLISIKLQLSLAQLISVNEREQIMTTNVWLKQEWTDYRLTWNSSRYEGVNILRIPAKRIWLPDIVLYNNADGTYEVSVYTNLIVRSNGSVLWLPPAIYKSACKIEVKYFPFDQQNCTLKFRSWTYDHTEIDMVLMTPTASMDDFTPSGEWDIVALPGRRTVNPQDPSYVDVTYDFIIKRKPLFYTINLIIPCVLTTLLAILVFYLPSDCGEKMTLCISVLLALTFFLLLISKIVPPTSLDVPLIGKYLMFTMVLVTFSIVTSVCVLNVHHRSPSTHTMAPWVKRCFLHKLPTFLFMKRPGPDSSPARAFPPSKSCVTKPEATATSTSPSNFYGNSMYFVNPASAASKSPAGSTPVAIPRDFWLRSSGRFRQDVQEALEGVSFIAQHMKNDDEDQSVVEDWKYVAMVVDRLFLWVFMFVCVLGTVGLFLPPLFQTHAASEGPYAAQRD
protocolNotes: Inhibition of control ACh responses by co-application, α3β4 nAChR in oocytes
Assay type: cell-based
assayConditions: 3 μM compound co-applied with ACh; fraction of control ACh response
observedProperty: Effect of co-application on the control ACh responses, α3β4

[in] Indicate its recorded Effect of co-application on the control ACh responses, α3β4; the compound in question is CCCNC(=O)c1ccc(N2CC[N+](CC)(CC)CC2)cc1.[I-]
[out] 0.650 ± 0.039

[in] Report measured Effect of co-application on the control ACh responses, α3β4; entry is CC[N+]1(CC)CCN(c2ccc(-c3ncco3)cc2)CC1.[I-]
[out] 0.507 ± 0.032

[in] Given the compound CC[N+]1(CC)CCN(c2ccc(-n3cccc3)cc2)CC1.[I-] , write its reported Effect of co-application on the control ACh responses, α3β4.
[out] 0.387 ± 0.057

[in] Please give measured Effect of co-application on the control ACh responses, α3β4 of the following entry: Cc1cccc(NC(=O)c2ccc(N3CC[N+](C)(C)CC3)cc2)n1.[I-]
[out] 0.838 ± 0.037

[in] Give me measured Effect of co-application on the control ACh responses, α3β4, please, for this compound: CC[N+]1(CC)CCN(c2ccc(C(=O)Nc3ccccn3)cc2)CC1.[I-]
[out] 0.789 ± 0.057

[in] For the compound CC[N+]1(CC)CCN(c2ccc(-n3cccn3)cc2)CC1.[I-] , give its reported Effect of co-application on the control ACh responses, α3β4.
[out] 0.736 ± 0.034

[in] Look up Effect of co-application on the control ACh responses, α3β4 of CC[N+]1(CC)CCN(c2ccc(C(=O)N3CCCC3)cc2)CC1.[I-] and report it.
[out] 0.849 ± 0.034

[in] Report Effect of co-application on the control ACh responses, α3β4, nothing else, for this compound: CC[N+]1(C)CCN(c2ccc(C(=O)Nc3cccc(C)n3)cc2)CC1.[I-]
[out] 0.849 ± 0.018

[in] Return the recorded Effect of co-application on the control ACh responses, α3β4 value; entry: CC[N+]1(CC)CCN(c2ccc(C(=O)Nc3cccc(C)c3)cc2)CC1.[I-]
[out] 1.039 ± 0.015

----------
system: α7 nAChR (Homo sapiens, UniProt P36544)
Construct: expressed in transfected cells; host or cells: Xenopus laevis oocytes, injected with in vitro transcribed RNA
Sequence (P36544 23-502): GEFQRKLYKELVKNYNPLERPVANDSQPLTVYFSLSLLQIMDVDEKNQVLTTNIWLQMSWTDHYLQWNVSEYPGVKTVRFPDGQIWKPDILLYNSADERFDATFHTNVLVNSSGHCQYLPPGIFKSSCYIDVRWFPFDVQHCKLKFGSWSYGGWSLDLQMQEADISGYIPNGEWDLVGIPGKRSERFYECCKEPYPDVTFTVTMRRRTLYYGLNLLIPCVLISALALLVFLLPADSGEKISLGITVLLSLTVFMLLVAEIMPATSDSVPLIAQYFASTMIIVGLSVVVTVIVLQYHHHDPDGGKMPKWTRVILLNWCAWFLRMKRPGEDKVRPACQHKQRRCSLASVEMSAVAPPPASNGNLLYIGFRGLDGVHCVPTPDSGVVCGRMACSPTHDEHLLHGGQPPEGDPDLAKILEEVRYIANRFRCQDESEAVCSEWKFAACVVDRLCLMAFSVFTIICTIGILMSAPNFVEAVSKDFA
protocolNotes: Two-electrode voltage-clamp, agonist concentration-response, α7 nAChR in Xenopus oocytes
Format: cell-based
assayConditions: net charge; ± standard error of fit
// map EC50 onto a label; ranges LOW: < 4 µM; MEDIUM: ≥ 4 µM and < 80 µM; HIGH: ≥ 80 µM

[in] Bin this entry: Cc1cccc(NC(=O)c2ccc(N3CC[N+](C)(C)CC3)cc2)n1.[I-]
[out] MEDIUM

[in] Please indicate the class for CC[N+]1(CC)CCN(c2ccc(C(=O)N3CCCC3)cc2)CC1.[I-] based on its EC50.
[out] HIGH

[in] Category lookup for the compound CCCNC(=O)c1ccc(N2CC[N+](CC)(CC)CC2)cc1.[I-]
[out] HIGH

[in] Which class does CC[N+]1(CC)CCN(c2ccc(C(=O)Nc3cccc(C)c3)cc2)CC1.[I-] fall in?
[out] LOW

[in] Which EC50 category applies to CC[N+]1(CC)CCN(c2ccc(C(N)=O)cc2)CC1 [Compound 1, reference compound] here?
[out] MEDIUM

[in] State the class of the compound shown: CC[N+]1(CC)CCN(c2ccc(-n3cccn3)cc2)CC1.[I-]
[out] MEDIUM

[in] Note: place this compound into its band. Item: CC[N+]1(CC)CCN(c2ccc(C(=O)Nc3ccccn3)cc2)CC1.[I-]
[out] MEDIUM

[in] Category lookup for the compound CC[N+]1(CC)CCN(c2ccc(-c3ncco3)cc2)CC1.[I-]
[out] LOW

[in] Pick a category. Item: CC[N+]1(CC)CCN(c2ccc(-n3cccc3)cc2)CC1.[I-]
[out] MEDIUM

----------
system: α1β1εδ nAChR (Mus musculus, UniProt P02716+P04756+P09690+P20782)
Construct: expressed in transfected cells; host or cells: Xenopus laevis oocytes
Sequence (P04756 21-457): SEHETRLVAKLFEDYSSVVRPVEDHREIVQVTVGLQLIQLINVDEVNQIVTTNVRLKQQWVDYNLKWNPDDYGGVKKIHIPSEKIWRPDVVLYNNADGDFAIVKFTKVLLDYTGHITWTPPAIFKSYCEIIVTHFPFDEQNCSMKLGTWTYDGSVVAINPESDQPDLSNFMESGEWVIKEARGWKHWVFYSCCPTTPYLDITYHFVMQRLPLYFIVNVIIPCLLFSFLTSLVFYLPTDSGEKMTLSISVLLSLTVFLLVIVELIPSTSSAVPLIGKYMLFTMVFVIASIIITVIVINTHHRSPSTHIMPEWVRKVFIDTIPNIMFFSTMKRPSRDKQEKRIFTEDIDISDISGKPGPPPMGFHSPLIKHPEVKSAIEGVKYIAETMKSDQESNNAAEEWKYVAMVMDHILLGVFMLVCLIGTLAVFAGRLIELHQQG
Sequence (P09690 24-501): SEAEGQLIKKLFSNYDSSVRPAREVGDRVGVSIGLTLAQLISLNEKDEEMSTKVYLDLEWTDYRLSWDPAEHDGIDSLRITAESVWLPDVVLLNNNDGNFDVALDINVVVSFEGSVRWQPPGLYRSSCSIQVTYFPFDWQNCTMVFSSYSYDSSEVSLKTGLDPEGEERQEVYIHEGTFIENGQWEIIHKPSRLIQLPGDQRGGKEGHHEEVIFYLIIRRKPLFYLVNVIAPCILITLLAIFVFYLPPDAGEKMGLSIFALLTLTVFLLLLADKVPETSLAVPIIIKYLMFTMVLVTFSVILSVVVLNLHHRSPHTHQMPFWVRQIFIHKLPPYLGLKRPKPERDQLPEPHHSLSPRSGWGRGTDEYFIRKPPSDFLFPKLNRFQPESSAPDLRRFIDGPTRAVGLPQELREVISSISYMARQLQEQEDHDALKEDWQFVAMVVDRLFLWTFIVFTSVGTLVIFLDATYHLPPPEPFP
Sequence (P20782 21-493): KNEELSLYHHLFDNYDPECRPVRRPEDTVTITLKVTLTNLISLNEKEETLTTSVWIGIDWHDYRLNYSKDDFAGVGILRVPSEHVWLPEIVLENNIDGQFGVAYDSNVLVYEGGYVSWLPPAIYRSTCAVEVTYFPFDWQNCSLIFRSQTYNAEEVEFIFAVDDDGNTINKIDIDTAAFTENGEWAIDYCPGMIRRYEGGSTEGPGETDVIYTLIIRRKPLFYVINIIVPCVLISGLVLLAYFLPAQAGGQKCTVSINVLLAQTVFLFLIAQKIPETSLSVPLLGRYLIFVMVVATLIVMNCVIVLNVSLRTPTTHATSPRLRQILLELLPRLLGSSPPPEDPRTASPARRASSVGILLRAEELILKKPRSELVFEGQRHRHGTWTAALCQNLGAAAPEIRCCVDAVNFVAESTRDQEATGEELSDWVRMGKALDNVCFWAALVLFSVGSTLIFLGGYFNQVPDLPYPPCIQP
Sequence (P02716 25-520): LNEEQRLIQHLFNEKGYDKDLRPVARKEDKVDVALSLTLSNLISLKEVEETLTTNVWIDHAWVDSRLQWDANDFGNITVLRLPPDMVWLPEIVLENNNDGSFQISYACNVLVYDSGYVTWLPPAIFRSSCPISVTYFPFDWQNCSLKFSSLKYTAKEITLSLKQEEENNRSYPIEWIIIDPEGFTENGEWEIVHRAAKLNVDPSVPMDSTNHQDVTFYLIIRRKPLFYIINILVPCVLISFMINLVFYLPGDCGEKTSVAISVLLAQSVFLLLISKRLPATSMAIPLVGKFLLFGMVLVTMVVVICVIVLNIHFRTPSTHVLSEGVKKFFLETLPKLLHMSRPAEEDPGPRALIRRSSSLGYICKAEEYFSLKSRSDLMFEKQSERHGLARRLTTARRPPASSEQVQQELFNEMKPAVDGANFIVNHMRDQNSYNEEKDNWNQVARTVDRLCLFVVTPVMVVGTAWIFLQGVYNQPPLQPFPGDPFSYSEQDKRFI
protocolNotes: Inhibition of control ACh responses by co-application, muscle α1β1εδ nAChR in oocytes
Assay type: cell-based
assayConditions: 3 μM compound co-applied with ACh; fraction of control ACh response
observedProperty: Effect of co-application on the control ACh responses, α1β1εδ
Give only the figure.

[in] // Input: CCCNC(=O)c1ccc(N2CC[N+](CC)(CC)CC2)cc1.[I-] . Output its Effect of co-application on the control ACh responses, α1β1εδ only.
[out] 0.709

[in] Given the compound CC[N+]1(CC)CCN(c2ccc(-n3cccc3)cc2)CC1.[I-] , write its reported Effect of co-application on the control ACh responses, α1β1εδ.
[out] 0.691

[in] Given the compound CC[N+]1(CC)CCN(c2ccc(C(=O)Nc3cccc(C)c3)cc2)CC1.[I-] , write its reported Effect of co-application on the control ACh responses, α1β1εδ.
[out] 0.555

[in] # return recorded Effect of co-application on the control ACh responses, α1β1εδ for entry CC[N+]1(CC)CCN(c2ccc(C(=O)N3CCCC3)cc2)CC1.[I-]
[out] 0.541

[in] Could you please provide reported Effect of co-application on the control ACh responses, α1β1εδ for CC[N+]1(CC)CCN(c2ccc(C(=O)Nc3ccccn3)cc2)CC1.[I-] ? Thanks!
[out] 0.506

[in] Output Effect of co-application on the control ACh responses, α1β1εδ of CC[N+]1(C)CCN(c2ccc(C(=O)Nc3cccc(C)n3)cc2)CC1.[I-]
[out] 0.413

[in] Using known records, supply Effect of co-application on the control ACh responses, α1β1εδ for Cc1cccc(NC(=O)c2ccc(N3CC[N+](C)(C)CC3)cc2)n1.[I-]
[out] 0.709

[in] Item CC[N+]1(CC)CCN(c2ccc(-c3ncco3)cc2)CC1.[I-] : provide Effect of co-application on the control ACh responses, α1β1εδ
[out] 0.353

[in] Annotate the compound CC[N+]1(CC)CCN(c2ccc(-n3cccn3)cc2)CC1.[I-] with its measured Effect of co-application on the control ACh responses, α1β1εδ.
[out] 0.590

----------
system: α9α10 nAChR (Homo sapiens, UniProt Q9GZZ6+Q9UGM1)
Construct: expressed in transfected cells; host or cells: Xenopus laevis oocytes, injected with in vitro transcribed RNA
Sequence (Q9GZZ6 25-450, one chain of several): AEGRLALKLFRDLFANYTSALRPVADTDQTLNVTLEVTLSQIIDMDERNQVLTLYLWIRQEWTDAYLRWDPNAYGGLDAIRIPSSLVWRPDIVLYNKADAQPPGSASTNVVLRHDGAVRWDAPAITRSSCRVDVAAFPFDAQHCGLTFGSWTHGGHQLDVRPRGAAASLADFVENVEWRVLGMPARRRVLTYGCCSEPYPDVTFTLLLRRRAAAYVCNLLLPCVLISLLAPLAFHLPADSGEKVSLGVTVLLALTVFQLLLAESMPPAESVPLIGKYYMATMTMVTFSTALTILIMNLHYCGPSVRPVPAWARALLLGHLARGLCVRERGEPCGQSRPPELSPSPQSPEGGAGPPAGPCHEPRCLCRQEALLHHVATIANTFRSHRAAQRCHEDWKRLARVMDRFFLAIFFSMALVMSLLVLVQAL
protocolNotes: Two-electrode voltage-clamp, agonist concentration-response, α9α10 nAChR in Xenopus oocytes
Type: cell-based
assayConditions: relative to ACh (Imax = 1); peak currents; ± standard error of fit
For each entry below, report its α9α10 Imax value.
Give your answer as a number; write no unit.

[in] Answer with the recorded α9α10 Imax of CC[N+]1(CC)CCN(c2ccc(C(=O)N3CCCC3)cc2)CC1.[I-] only.
[out] 0.56

[in] Give the measured α9α10 Imax for CC[N+]1(CC)CCN(c2ccc(-n3cccn3)cc2)CC1.[I-]
[out] 0.59

[in] Please report α9α10 Imax for the following compound: CCCNC(=O)c1ccc(N2CC[N+](CC)(CC)CC2)cc1.[I-]
[out] 0.79

[in] Identify the reported α9α10 Imax for the following entry. CC[N+]1(C)CCN(c2ccc(C(=O)Nc3cccc(C)n3)cc2)CC1.[I-]
[out] 0.92

[in] Give the reported value of α9α10 Imax for this record: CC[N+]1(CC)CCN(c2ccc(-n3cccc3)cc2)CC1.[I-]
[out] 0.17

[in] Return α9α10 Imax (reported value) for this compound: CC[N+]1(CC)CCN(c2ccc(-c3ncco3)cc2)CC1.[I-]
[out] 0.83

[in] Report α9α10 Imax for CC[N+]1(CC)CCN(c2ccc(C(=O)Nc3cccc(C)c3)cc2)CC1.[I-]
[out] 1.12

[in] # return recorded α9α10 Imax for entry CC[N+]1(CC)CCN(c2ccc(C(=O)Nc3ccccn3)cc2)CC1.[I-]
[out] 0.94

[in] Look up and state reported α9α10 Imax for CC[N+]1(CC)CCN(c2ccc(C(N)=O)cc2)CC1 [Compound 1, reference compound]
[out] 1.19

[in] Tell me α9α10 Imax reported for Cc1cccc(NC(=O)c2ccc(N3CC[N+](C)(C)CC3)cc2)n1.[I-]
[out] 0.89

----------
system: α9 nAChR (Homo sapiens, UniProt Q9UGM1)
Sequence (Q9UGM1 26-479 limits assumed): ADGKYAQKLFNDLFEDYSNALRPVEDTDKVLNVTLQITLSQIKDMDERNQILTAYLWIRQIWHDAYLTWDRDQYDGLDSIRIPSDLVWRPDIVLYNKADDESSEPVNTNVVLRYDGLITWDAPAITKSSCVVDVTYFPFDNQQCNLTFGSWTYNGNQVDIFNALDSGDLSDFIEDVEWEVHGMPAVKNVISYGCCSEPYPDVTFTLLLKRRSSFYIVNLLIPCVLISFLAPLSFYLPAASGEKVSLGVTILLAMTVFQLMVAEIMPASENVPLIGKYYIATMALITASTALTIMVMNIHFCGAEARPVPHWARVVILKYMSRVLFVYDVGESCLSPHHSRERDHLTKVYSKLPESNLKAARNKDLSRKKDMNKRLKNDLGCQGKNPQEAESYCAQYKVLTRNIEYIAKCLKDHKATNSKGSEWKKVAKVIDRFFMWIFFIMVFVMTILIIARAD
protocolNotes: Two-electrode voltage-clamp, agonist concentration-response, α9 nAChR in Xenopus oocytes
assayConditions: peak currents; ± standard error of fit
pEC50: −log10 of the molar value.
Assign Criterion met whenever pEC50 does not fall below 6; assign Criterion not met whenever it does.

[in] Reported pEC50 reaches at least 6 for CC[N+]1(CC)CCN(c2ccc(C(=O)Nc3ccccn3)cc2)CC1.[I-] ?
[out] Criterion not met

[in] Would you say CC[N+]1(CC)CCN(c2ccc(C(=O)N3CCCC3)cc2)CC1.[I-] shows pEC50 at minimum 6?
[out] Criterion not met

[in] Is pEC50 for Cc1cccc(NC(=O)c2ccc(N3CC[N+](C)(C)CC3)cc2)n1.[I-] at or above 6?
[out] Criterion not met

[in] Given CC[N+]1(CC)CCN(c2ccc(-c3ncco3)cc2)CC1.[I-] , state whether its pEC50 is at least 6.
[out] Criterion met

[in] Evaluate CCCNC(=O)c1ccc(N2CC[N+](CC)(CC)CC2)cc1.[I-] : pEC50 at minimum 6?
[out] Criterion not met
